test details: HCV Replicon 2A CC50, calcein AM (Example Q)
Type: cell-based
condition: HCV replicon cells (2A), calcein AM fluorescence, read-out: HCV Replicon 2A CC50 (nM) (per Ex. Q)
measured property: CC50 at 3 days

Qu. // Input: CCCCCCCCCCCCCCCCCCOC[C@H](COP(=O)(O)OC[C@@]1(C#N)O[C@@H](c2ccc3c(N)ncnn23)[C@H](O)[C@@H]1O)OCc1ccc(C#N)c(Cl)c1 . Output its CC50 at 3 days only.
Ans. > 44400 nM

Qu. // Input: CCCCCCCCCCCCCCCCCC[C@@H](COP(=O)(O)OC[C@@]1(C#N)O[C@@H](c2ccc3c(N)ncnn23)[C@H](O)[C@@H]1O)OCc1cc(F)cc(C#N)c1 . Output its CC50 at 3 days only.
Ans. > 44400 nM

Qu. // Input: CCCCCCCCCCCCCCCCCCOC[C@H](COP(=O)(O)OC[C@@]1(C#N)O[C@@H](c2ccc3c(N)ncnn23)[C@H](O)[C@@H]1O)Oc1cccc(C#N)n1 . Output its CC50 at 3 days only.
Ans. > 44400 nM

----------
Please provide measured CC50 at 3 days for the entries that follow.
test details: RSV HEP2-CC50-384-V2 (per Ex. V)
Assay type: cell-based
condition: human

Qu. // Input: CCCCCCCCCCCCCCCCC[C@H](COP(=O)(O)OC[C@@]1(C#N)O[C@@H](c2ccc3c(N)ncnn23)[C@H](O)[C@@H]1O)OCc1cc(F)cc(C#N)c1 . Output its CC50 at 3 days only.
Ans. > 50 µM

Qu. // Input: CCCCCCCCCCCCCCCCCC[C@@H](COP(=O)(O)OC[C@@]1(C#N)O[C@@H](c2ccc3c(N)ncnn23)[C@H](O)[C@@H]1O)Oc1cc(F)cc(C#N)c1 . Output its CC50 at 3 days only.
Ans. > 38.1 µM

Qu. // Input: CCCCCCCCCCCCCCCCCCOC[C@H](COP(=O)(O)OC[C@@]1(C#N)O[C@@H](c2ccc3c(N)ncnn23)[C@H](O)[C@@H]1O)OCc1ccc(C#N)cc1OC . Output its CC50 at 3 days only.
Ans. > 47 µM

Qu. // Input: CCCCCCCCCCCCCCCCCC[C@@H](COP(=O)(O)OC[C@@]1(C#N)O[C@@H](c2ccc3c(N)ncnn23)[C@H](O)[C@@H]1O)OCc1ccccc1 . Output its CC50 at 3 days only.
Ans. > 50 µM

Qu. // Input: CCCCCCCCCCCCCCCCCCOC[C@](C)(COP(=O)(O)OC[C@@]1(C#N)O[C@@H](c2ccc3c(N)ncnn23)[C@H](O)[C@@H]1O)OCc1cc(F)cc(C#N)c1 . Output its CC50 at 3 days only.
Ans. > 50 µM

Qu. // Input: CCCCCCCCCCCCCCCCCCOC[C@H](COP(=O)(O)OC[C@@]1(C#N)O[C@@H](c2ccc3c(N)ncnn23)[C@H](O)[C@@H]1O)OCc1ccc(OC)c(C#N)c1 . Output its CC50 at 3 days only.
Ans. > 48.5 µM
